// provenance: patent US20240246918A1

# Test system: COLO 205 colorectal tumor cells
# METHOD NOTES: Tumor cell viability inhibition assay (CellTiter-Glo 2.0, 72 hours)
# Type: cell-based
# TEST CONTEXT: Homo sapiens, COLO 205, 72 h, COLO 205 cell viability
pIC50: −log10 of the molar value.
PROPERTY NAME: pIC50

Prompt: Suppose we examine the compound Cc1cc(-c2cc(Cl)ccc2OCCn2c(C)nc3c(c2=O)C[C@H](N2CC[C@@H](OC(F)(F)F)C2)CC3)c2scc(C(=O)O)c2n1 (single isomer, unassigned) ; what pIC50 value has been reported?
Response: > 5.30

Prompt: Another compound: Cc1cc(-c2cc(Cl)ccc2OCCn2c(C)nc3c(c2=O)CC(N2CCC(C(F)(F)F)CC2)CC3)c2scc(C(=O)O)c2n1 (centres unmarked)
Response: > 5.30

Prompt: And then Cc1cc(-c2cc(Cl)ccc2OCCn2c(C)nc3c(c2=O)C[C@@H](N2CCC(c4ncccc4F)CC2)CC3)c2scc(C(=O)O)c2n1 (single isomer, unassigned) , what is it?
Response: > 5.30

Prompt: Param item: Cc1cc(-c2cc(Cl)ccc2OCCn2c(C)nc3c(c2=O)C[C@@H](N2CC[C@@H](OC(F)(F)F)C(F)(F)C2)CC3)c2scc(C(=O)O)c2n1 (single isomer, unassigned)
Response: 4.70 to 5.30

Prompt: Next: Cc1cc(-c2cc(Cl)ccc2OCCn2c(C)nc3c(c2=O)CC(C)(N2CCC4(CC2)CC4(F)F)CC3)c2scc(C(=O)O)c2n1 (single isomer, unassigned)
Response: > 5.30

###

Exercise: for every item that follows, state its recorded IC50.
# Test system: COLO 205 colorectal tumor cells
# METHOD NOTES: Tumor cell viability inhibition assay (CellTiter-Glo 2.0, 72 hours)
# Format: cell-based
# TEST CONTEXT: Homo sapiens, COLO 205, 72 h, COLO 205 cell viability

Prompt: Could you tell me which IC50 is on file for Cc1cc(-c2cc(Cl)ccc2OCCn2c(C)nc3c(c2=O)CC(N2CC4COCC4C2)CC3)c2scc(C(=O)O)c2n1 (single isomer, unassigned) [Compound 67] ?
Response: < 5 µM

Prompt: Same question for Cc1cc(-c2cc(Cl)ccc2OCCn2c(C)nc3c(c2=O)CC(N(C)Cc2ccc(=O)[nH]c2)CC3)c2scc(C(=O)O)c2n1 (single isomer, unassigned) please.
Response: > 20 µM

Prompt: And for COC1CCN(C2Cc3c(cc(C)n(CCOc4ccc(Cl)cc4-c4cc(C)nc5c(C(=O)O)csc45)c3=O)C3(CC3)C2)CC1 (stereo not drawn) ?
Response: < 5 µM

###

pIC50: −log10 of the molar value.
// values below are pIC50; system is human eIF4E protein (Homo sapiens, UniProt P06730)
Sequence (P06730 whole entry): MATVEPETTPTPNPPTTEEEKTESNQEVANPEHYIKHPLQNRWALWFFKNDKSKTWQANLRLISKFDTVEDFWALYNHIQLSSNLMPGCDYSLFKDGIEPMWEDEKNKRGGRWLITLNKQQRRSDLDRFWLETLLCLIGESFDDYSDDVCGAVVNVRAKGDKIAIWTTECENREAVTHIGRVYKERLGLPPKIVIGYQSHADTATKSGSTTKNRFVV

Prompt: Given the compound Cc1cc(-c2cc(Cl)ccc2OCCn2c(C)nc3c(c2=O)C[C@H](N(C)CC2CC(F)(F)C2)CC32CC2)c2scc(C(=O)O)c2n1 (single isomer, unassigned) , what is its reported pIC50?
Response: > 7.00

Prompt: Let us now turn to Cc1cc(-c2cc(Cl)ccc2OCCn2c(C)nc3c(c2=O)CC(N(C)C2CC(F)(F)C2)CC3)c2scc(C(=O)O)c2n1 (stereo not drawn)
Response: > 7.00

Prompt: Next compound: Cc1cc(-c2cc(Cl)ccc2OCCn2c(C)nc3c(c2=O)C[C@H](N2CC[C@H](OC(F)(F)F)C2)CC3)c2scc(C(=O)O)c2n1 (single isomer, unassigned)
Response: > 7.00
